Values were extracted from ChEMBL document CHEMBL1129258.

Test system: Enterococcus faecium
Test: Inhibitory activity against enterococcus faecium Van A
Type: functional
Param label: returns fulfilled when MIC < 0.5 µg/mL, returns not fulfilled otherwise, including exact equality.

1. CN[C@H](CC(C)C)C(=O)N[C@H]1C(=O)N[C@@H](CC(N)=O)C(=O)N[C@H]2C(=O)N[C@H]3C(=O)N[C@H](C(=O)N[C@H](C(=O)O)c4cc(O)cc(O)c4-c4cc3ccc4O)[C@H](O)c3ccc(c(Cl)c3)Oc3cc2cc(c3O[C@@H]2O[C@H](CO)[C@@H](O)[C@H](O)[C@H]2O[C@H]2C[C@](C)(N)[C@H](O)[C@H](C)O2)Oc2ccc(cc2Cl)[C@H]1O ... not fulfilled
2. Cc1c(N2CC[C@H](N)C2)c(F)cn2c(=O)c(C(=O)O)cc(C3CC3)c12 ... fulfilled
3. Cc1c(N2CCC(CN)C2)c(F)cn2c(=O)c(C(=O)O)cc(C3CC3)c12 (stereo not drawn) ... fulfilled
4. Cl.O=C(O)c1cn(C2CC2)c2cc(N3CCNCC3)c(F)cc2c1=O [CIPROFLOXACIN HYDROCHLORIDE] ... not fulfilled
5. Cc1c(N2CCC(N(C)C)C2)c(F)cn2c(=O)c(C(=O)O)cc(C3CC3)c12 (stereo not drawn) ... not fulfilled
